Molecular target: T1, cyno FcRn/b2M (cyno, UniProt Q8SPV9 24-297; Q8SPW0 21-119, biotinylated)
T1 construct: bought recombinant biotinylated protein (Immunitrack ITF05 or ACRO FCM-C82W5); also called cFcRn; cFcRn/cb2M
T1 sequence (Q8SPV9 24-297 limits assumed, chain 1 of 2): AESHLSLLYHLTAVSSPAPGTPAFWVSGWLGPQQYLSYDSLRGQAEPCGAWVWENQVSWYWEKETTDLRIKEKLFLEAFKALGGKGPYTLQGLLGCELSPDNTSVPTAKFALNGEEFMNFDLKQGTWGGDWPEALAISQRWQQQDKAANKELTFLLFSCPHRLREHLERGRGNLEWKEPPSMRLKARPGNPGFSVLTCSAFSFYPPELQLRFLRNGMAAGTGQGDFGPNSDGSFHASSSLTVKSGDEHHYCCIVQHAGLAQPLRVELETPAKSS
T1 sequence (Q8SPW0 21-119 limits assumed, chain 2 of 2): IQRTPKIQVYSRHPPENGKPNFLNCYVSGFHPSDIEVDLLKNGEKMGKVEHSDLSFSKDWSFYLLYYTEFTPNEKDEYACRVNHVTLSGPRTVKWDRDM
Assay: SPR pH 7.4;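 also: surface plasmon resonance kinetics, periplasmic extracts diluted 1:10 flowed over immobilized target at 25 °C, 120 s association then 600–3600 s dissociation, buffer with 150 mM NaCl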
recorded.endpoint: koff (s⁻¹)

Illustrative cases are given below, each with its answer.
binder	koff / s⁻¹
T0263018B11 W100cY (VHH, name in Kabat numbering, FLAG3-His6 tagged) VHH: EVQLVESGGGVVQPGGSLRLSCAASGFTFSSYAMYWVRQAPGKGLEWVSAISSGGGSTDYADSVKGRFTISRDNSKNTLYLQMNSLRPEDTALYYCAADTLYTSLTYYSYWGQGTLVTVSS	0.075
T0263018B11 T57E (VHH, name in Kabat numbering, FLAG3-His6 tagged) VHH: EVQLVESGGGVVQPGGSLRLSCAASGFTFSSYAMYWVRQAPGKGLEWVSAISSGGGSEDYADSVKGRFTISRDNSKNTLYLQMNSLRPEDTALYYCAADTLYTSLTWYSYWGQGTLVTVSS	0.024
T0263018B11 F29G (VHH, name in Kabat numbering, FLAG3-His6 tagged) VHH: EVQLVESGGGVVQPGGSLRLSCAASGFTGSSYAMYWVRQAPGKGLEWVSAISSGGGSTDYADSVKGRFTISRDNSKNTLYLQMNSLRPEDTALYYCAADTLYTSLTWYSYWGQGTLVTVSS	0.14
T0263018B11 D58V (VHH, name in Kabat numbering, FLAG3-His6 tagged) VHH: EVQLVESGGGVVQPGGSLRLSCAASGFTFSSYAMYWVRQAPGKGLEWVSAISSGGGSTVYADSVKGRFTISRDNSKNTLYLQMNSLRPEDTALYYCAADTLYTSLTWYSYWGQGTLVTVSS	0.027
T0263018B11 T28G (VHH, name in Kabat numbering, FLAG3-His6 tagged) VHH: EVQLVESGGGVVQPGGSLRLSCAASGFGFSSYAMYWVRQAPGKGLEWVSAISSGGGSTDYADSVKGRFTISRDNSKNTLYLQMNSLRPEDTALYYCAADTLYTSLTWYSYWGQGTLVTVSS	0.028

[a] T0263018B11 G26Y (VHH, name in Kabat numbering, FLAG3-His6 tagged) VHH: EVQLVESGGGVVQPGGSLRLSCAASYFTFSSYAMYWVRQAPGKGLEWVSAISSGGGSTDYADSVKGRFTISRDNSKNTLYLQMNSLRPEDTALYYCAADTLYTSLTWYSYWGQGTLVTVSS
[b] T0263018B11 S30D (VHH, name in Kabat numbering, FLAG3-His6 tagged) VHH: EVQLVESGGGVVQPGGSLRLSCAASGFTFDSYAMYWVRQAPGKGLEWVSAISSGGGSTDYADSVKGRFTISRDNSKNTLYLQMNSLRPEDTALYYCAADTLYTSLTWYSYWGQGTLVTVSS
[c] T0263018B11 T57I (VHH, name in Kabat numbering, FLAG3-His6 tagged) VHH: EVQLVESGGGVVQPGGSLRLSCAASGFTFSSYAMYWVRQAPGKGLEWVSAISSGGGSIDYADSVKGRFTISRDNSKNTLYLQMNSLRPEDTALYYCAADTLYTSLTWYSYWGQGTLVTVSS
// query Would you mind ranking these binders by ascending koff? Form field (ranking): labels in requested order.
// result a, c, b
(a: 0.028 s⁻¹, c: 0.06 s⁻¹, b: 0.17 s⁻¹)
